Parameter Apparent Vmax: see the listing below.
- test-target: WT luciferase (Photinus pyralis, UniProt P08659)
- Construct: The full firefly (Photinus pyralis) luciferase gene was PCR amplified from pGL3 (Promega); GST (N, cleaved yes); made in house; host or cells: E. coli JM109
- Sequence (P08659 whole entry): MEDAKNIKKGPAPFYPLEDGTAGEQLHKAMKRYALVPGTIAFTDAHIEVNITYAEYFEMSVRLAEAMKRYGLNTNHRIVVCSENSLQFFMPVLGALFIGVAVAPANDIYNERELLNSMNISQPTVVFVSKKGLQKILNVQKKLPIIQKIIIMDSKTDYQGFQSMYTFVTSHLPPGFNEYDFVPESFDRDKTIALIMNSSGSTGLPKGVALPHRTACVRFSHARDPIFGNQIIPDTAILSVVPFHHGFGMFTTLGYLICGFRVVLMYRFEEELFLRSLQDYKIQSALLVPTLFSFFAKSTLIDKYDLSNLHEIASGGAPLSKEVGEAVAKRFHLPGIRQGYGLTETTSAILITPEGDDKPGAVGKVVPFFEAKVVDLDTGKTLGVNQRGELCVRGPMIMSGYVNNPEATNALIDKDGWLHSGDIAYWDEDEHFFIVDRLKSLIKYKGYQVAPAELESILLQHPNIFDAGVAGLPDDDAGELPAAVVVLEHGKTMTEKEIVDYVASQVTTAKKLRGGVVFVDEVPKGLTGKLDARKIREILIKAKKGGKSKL
- method-description: Titration assay with purified protein
- Format: biochemical

As a guide, the following entries are already answered.
compound	test-target	Apparent Vmax
Nc1ccc2nc(C3=N[C@@H](C(=O)O)CS3)sc2c1	WT luciferase (Photinus pyralis, UniProt P08659)	35 ± 0.25 ×10^−5 cps
CNc1ccc2nc(C3=NC(C(=O)O)CS3)sc2c1 (stereo not drawn)	WT luciferase (Photinus pyralis, UniProt P08659)	3 ± 0.02 ×10^−5 cps
O=C(O)[C@H]1CSC(c2nc3cc4c(cc3s2)NCC4)=N1	WT luciferase (Photinus pyralis, UniProt P08659)	9.7 ± 0.1 ×10^−5 cps
CN(C)c1ccc2nc(C3=NC(C(=O)O)CS3)sc2c1 (stereo not drawn)	WT luciferase (Photinus pyralis, UniProt P08659)	0.5 ± 0.003 ×10^−5 cps
CN1CCc2cc3nc(C4=N[C@@H](C(=O)O)CS4)sc3cc21	WT luciferase (Photinus pyralis, UniProt P08659)	1.3 ± 0.02 ×10^−5 cps

Problem: Which measured Apparent Vmax value corresponds to O=C(O)[C@H]1CSC(c2nc3ccc(O)cc3s2)=N1 ?
Result: 1079 ± 13 ×10^−5 cps

Attribution: patent US9587266B2
